Experiment: Measurement of rate of dissolution (solubility in water)
Type: physicochemical
Conditions: before purification, Table 2; 1.00 g in 9.00 g water, 25° C.
Recorded metric: Rate of dissolution (dissolution time in water)

compound="C=Cc1ccc(S(=O)(=O)[O-])cc1.[Na+] [Example 8, sodium p-styrenesulfonate]" endpoint_result="140 s"
compound="C=Cc1ccc(S(=O)(=O)[O-])cc1.[Na+] [Example 7, sodium p-styrenesulfonate]" endpoint_result="200 s"
compound="C=Cc1ccc(S(=O)(=O)[O-])cc1.[Na+] [Comparative Example 9, sodium p-styrenesulfonate]" endpoint_result="127 s"
compound="C=Cc1ccc(S(=O)(=O)[O-])cc1.[Na+] [Comparative Example 8, sodium p-styrenesulfonate]" endpoint_result="270 s"
compound="C=Cc1ccc(S(=O)(=O)[O-])cc1.[Na+] [Comparative Example 7, sodium p-styrenesulfonate]" endpoint_result="130 s"
compound="C=Cc1ccc(S(=O)(=O)[O-])cc1.[Na+] [Example 6, sodium p-styrenesulfonate]" endpoint_result="160 s"

---

Recorded Yellowness (YI value) for the following molecules
Assay: Whiteness and yellowness of sodium p-styrenesulfonate powder with color-difference meter
Assay type: physicochemical
Settings: sodium p-styrenesulfonate crystal powder
Procedure: <Measurement of Whiteness and Yellowness of Sodium p-Styrenesulfonate with Color-Difference Meter> After a color-difference meter (manufactured by Nippon Denshoku Industries Co., Ltd., C-106) was switched on and stabilized for 30 minutes, a light projection lens (30 mm in diameter) and a sample stand (30 mm in diameter) were attached thereto, and standard adjustment was performed. […] Measurement was made with the color-difference meter to read the whiteness (WI value) and the yellowness (YI value).
Recorded metric: Yellowness (YI value)

molecule="C=Cc1ccc(S(=O)(=O)[O-])cc1.[Na+] [Example 5, sodium p-styrenesulfonate]" endpoint_result=7.5
molecule="C=Cc1ccc(S(=O)(=O)[O-])cc1.[Na+] [Example 2, sodium p-styrenesulfonate]" endpoint_result=2.9
molecule="C=Cc1ccc(S(=O)(=O)[O-])cc1.[Na+] [Comparative Example 4, sodium p-styrenesulfonate]" endpoint_result=10.1
molecule="C=Cc1ccc(S(=O)(=O)[O-])cc1.[Na+] [Comparative Example 3, sodium p-styrenesulfonate]" endpoint_result=12.5

---

Assay: Measurement of particle size distribution (laser diffraction/scattering, Microtrack HRA)
Type: physicochemical
Details: sodium p-styrenesulfonate powder, Table 1
Protocol: <Measurement of Particle Size Distribution> In a 30-ml glass sample bottle, 0.55 g of a sample and 15.0 g of isopropanol were collected, and treated with an ultrasonic washer for 4 minutes while keeping the temperature at 25° C. or less to prepare a slurry. Thereafter, the particle size (median diameter) distribution was measured under the following conditions, using a laser diffraction/scattering type particle size analyzer, Microtrack HRA (manufactured by Nikkiso Co., Ltd.). […]
Rule: Median diameter of 20 μm or more gives true; anything lower gives false.

molecule="C=Cc1ccc(S(=O)(=O)[O-])cc1.[Na+] [Comparative Example 6, sodium p-styrenesulfonate]" answer_label=true
molecule="C=Cc1ccc(S(=O)(=O)[O-])cc1.[Na+] [Comparative Example 4, sodium p-styrenesulfonate]" answer_label=true
molecule="C=Cc1ccc(S(=O)(=O)[O-])cc1.[Na+] [Comparative Example 3, sodium p-styrenesulfonate]" answer_label=true
molecule="C=Cc1ccc(S(=O)(=O)[O-])cc1.[Na+] [Example 5, sodium p-styrenesulfonate]" answer_label=false

---

Assay: Measurement of repose angle (fluidity of powder)
Assay type: physicochemical
Details: sodium p-styrenesulfonate powder, Table 1; smaller = better fluidity
Recorded Repose angle for the following molecules
Recorded metric: Repose angle (deg)

molecule="C=Cc1ccc(S(=O)(=O)[O-])cc1.[Na+] [Comparative Example 6, sodium p-styrenesulfonate]" endpoint_result=59
molecule="C=Cc1ccc(S(=O)(=O)[O-])cc1.[Na+] [Comparative Example 3, sodium p-styrenesulfonate]" endpoint_result=59
molecule="C=Cc1ccc(S(=O)(=O)[O-])cc1.[Na+] [Example 5, sodium p-styrenesulfonate]" endpoint_result=59
molecule="C=Cc1ccc(S(=O)(=O)[O-])cc1.[Na+] [Example 1, sodium p-styrenesulfonate]" endpoint_result=46
molecule="C=Cc1ccc(S(=O)(=O)[O-])cc1.[Na+] [Example 2, sodium p-styrenesulfonate]" endpoint_result=49
molecule="C=Cc1ccc(S(=O)(=O)[O-])cc1.[Na+] [Comparative Example 4, sodium p-styrenesulfonate]" endpoint_result=60
molecule="C=Cc1ccc(S(=O)(=O)[O-])cc1.[Na+] [Comparative Example 1, sodium p-styrenesulfonate]" endpoint_result=60

---

Experiment: APHA values of 15 wt % aqueous sodium p-styrenesulfonate and poly(sodium p-styrenesulfonate) solutions
Type: physicochemical
Settings: 15 wt % aqueous solution of the monomer
Rule: Solution APHA value (hue of sodium p-styrenesulfonate) of 200 or more gives yes; anything lower gives no.

compound="C=Cc1ccc(S(=O)(=O)[O-])cc1.[Na+] [Comparative Example 4, sodium p-styrenesulfonate]" answer_label=no
compound="C=Cc1ccc(S(=O)(=O)[O-])cc1.[Na+] [Comparative Example 3, sodium p-styrenesulfonate]" answer_label=no
compound="C=Cc1ccc(S(=O)(=O)[O-])cc1.[Na+] [Example 1, sodium p-styrenesulfonate]" answer_label=no
compound="C=Cc1ccc(S(=O)(=O)[O-])cc1.[Na+] [Comparative Example 1, sodium p-styrenesulfonate]" answer_label=yes
compound="C=Cc1ccc(S(=O)(=O)[O-])cc1.[Na+] [Example 2, sodium p-styrenesulfonate]" answer_label=no
compound="C=Cc1ccc(S(=O)(=O)[O-])cc1.[Na+] [Example 5, sodium p-styrenesulfonate]" answer_label=no

---

Experiment: Measurement of repose angle (fluidity of powder)
Format: physicochemical
Conditions: before purification, Table 2
Mark Y only for Repose angle values smaller than 50 deg; exact matches and larger values are N.

molecule="C=Cc1ccc(S(=O)(=O)[O-])cc1.[Na+] [Comparative Example 9, sodium p-styrenesulfonate]" answer_label=N
molecule="C=Cc1ccc(S(=O)(=O)[O-])cc1.[Na+] [Comparative Example 8, sodium p-styrenesulfonate]" answer_label=Y
molecule="C=Cc1ccc(S(=O)(=O)[O-])cc1.[Na+] [Example 6, sodium p-styrenesulfonate]" answer_label=Y
molecule="C=Cc1ccc(S(=O)(=O)[O-])cc1.[Na+] [Example 7, sodium p-styrenesulfonate]" answer_label=Y
molecule="C=Cc1ccc(S(=O)(=O)[O-])cc1.[Na+] [Comparative Example 7, sodium p-styrenesulfonate]" answer_label=N

---

Experiment: Whiteness and yellowness of sodium p-styrenesulfonate powder with color-difference meter
Type: physicochemical
Settings: sodium p-styrenesulfonate crystal powder
Recorded metric: Whiteness (WI value)

compound="C=Cc1ccc(S(=O)(=O)[O-])cc1.[Na+] [Example 1, sodium p-styrenesulfonate]" endpoint_result=95.7
compound="C=Cc1ccc(S(=O)(=O)[O-])cc1.[Na+] [Example 2, sodium p-styrenesulfonate]" endpoint_result=95.5
compound="C=Cc1ccc(S(=O)(=O)[O-])cc1.[Na+] [Example 5, sodium p-styrenesulfonate]" endpoint_result=95.0
compound="C=Cc1ccc(S(=O)(=O)[O-])cc1.[Na+] [Comparative Example 6, sodium p-styrenesulfonate]" endpoint_result=91.0
compound="C=Cc1ccc(S(=O)(=O)[O-])cc1.[Na+] [Comparative Example 4, sodium p-styrenesulfonate]" endpoint_result=93.0
compound="C=Cc1ccc(S(=O)(=O)[O-])cc1.[Na+] [Comparative Example 1, sodium p-styrenesulfonate]" endpoint_result=90.2
compound="C=Cc1ccc(S(=O)(=O)[O-])cc1.[Na+] [Comparative Example 3, sodium p-styrenesulfonate]" endpoint_result=93.5

---

Assay: Measurement of rate of dissolution (solubility in water)
Type: physicochemical
Conditions: 1.00 g powder in 9.00 g ion-exchanged water, 25° C., Table 1
Recorded metric: Rate of dissolution (dissolution time in water) (s)

compound="C=Cc1ccc(S(=O)(=O)[O-])cc1.[Na+] [Comparative Example 4, sodium p-styrenesulfonate]" display_unit=s endpoint_result=126
compound="C=Cc1ccc(S(=O)(=O)[O-])cc1.[Na+] [Comparative Example 6, sodium p-styrenesulfonate]" display_unit=s endpoint_result=122
compound="C=Cc1ccc(S(=O)(=O)[O-])cc1.[Na+] [Comparative Example 3, sodium p-styrenesulfonate]" display_unit=s endpoint_result=123
compound="C=Cc1ccc(S(=O)(=O)[O-])cc1.[Na+] [Example 2, sodium p-styrenesulfonate]" display_unit=s endpoint_result=155
compound="C=Cc1ccc(S(=O)(=O)[O-])cc1.[Na+] [Comparative Example 1, sodium p-styrenesulfonate]" display_unit=s endpoint_result=132
compound="C=Cc1ccc(S(=O)(=O)[O-])cc1.[Na+] [Example 5, sodium p-styrenesulfonate]" display_unit=s endpoint_result=130
compound="C=Cc1ccc(S(=O)(=O)[O-])cc1.[Na+] [Example 1, sodium p-styrenesulfonate]" display_unit=s endpoint_result=165

---

Assay: Measurement of particle size distribution (laser diffraction/scattering, Microtrack HRA)
Assay type: physicochemical
Conditions: sodium p-styrenesulfonate powder, Table 1
Experimental: <Measurement of Particle Size Distribution> In a 30-ml glass sample bottle, 0.55 g of a sample and 15.0 g of isopropanol were collected, and treated with an ultrasonic washer for 4 minutes while keeping the temperature at 25° C. or less to prepare a slurry. Thereafter, the particle size (median diameter) distribution was measured under the following conditions, using a laser diffraction/scattering type particle size analyzer, Microtrack HRA (manufactured by Nikkiso Co., Ltd.). […]
Recorded metric: Small particles less than 10.00 μm (%)

compound="C=Cc1ccc(S(=O)(=O)[O-])cc1.[Na+] [Comparative Example 3, sodium p-styrenesulfonate]" recorded_metric="Small particles less than 10.00 μm" endpoint_result=12.1
compound="C=Cc1ccc(S(=O)(=O)[O-])cc1.[Na+] [Example 5, sodium p-styrenesulfonate]" recorded_metric="Small particles less than 10.00 μm" endpoint_result=14.3
compound="C=Cc1ccc(S(=O)(=O)[O-])cc1.[Na+] [Example 2, sodium p-styrenesulfonate]" recorded_metric="Small particles less than 10.00 μm" endpoint_result=2.0
compound="C=Cc1ccc(S(=O)(=O)[O-])cc1.[Na+] [Comparative Example 4, sodium p-styrenesulfonate]" recorded_metric="Small particles less than 10.00 μm" endpoint_result=14.3
compound="C=Cc1ccc(S(=O)(=O)[O-])cc1.[Na+] [Comparative Example 6, sodium p-styrenesulfonate]" recorded_metric="Small particles less than 10.00 μm" endpoint_result=12.7
compound="C=Cc1ccc(S(=O)(=O)[O-])cc1.[Na+] [Example 1, sodium p-styrenesulfonate]" recorded_metric="Small particles less than 10.00 μm" endpoint_result=0.5
compound="C=Cc1ccc(S(=O)(=O)[O-])cc1.[Na+] [Comparative Example 1, sodium p-styrenesulfonate]" recorded_metric="Small particles less than 10.00 μm" endpoint_result=12.6
